- Test system: SF-295
- ASSAY PROCEDURE: NCI tumour cell line growth inhibition, 48 h
Active and inactive are the calls of the source. No stated cut-off is given here; in the data, active = GI50 up to about 1.1 µM and inactive = higher.
Your reply should match one of these outcome classes. y = active, n = inactive

Answered examples (10):
CCOP(=O)(OCC)Oc1c(OC)c2[nH]c(C(=O)OC)cc2c2c(C(=O)O)c[nH]c12; n
COC(=O)CCC(=O)Nc1cc(C)ccc1C; n
O=C(C[n+]1ccccc1)NNC(=O)/C(=C/c1ccc2c(c1)OCO2)NC(=O)c1ccccc1; n
CCCOC(=O)CNC(=O)OC(C)(C)C; n
c1ccc(-c2cc(-c3cc(-c4ccccc4)no3)on2)cc1; n
Cc1c(C#N)c(=N)oc2ccccc12; n
C/C=C1\C=C(OC)CN(CCc2c[nH]c3ccccc23)C1; n
OCc1ccc2[n+](c1)CCC1c3ccccc3NC21 (configuration not stated); n
O=[N+]([O-])C(C=C(n1nnc2ccccc21)n1nnc2ccccc21)=C(n1nnc2ccccc21)n1nnc2ccccc21; n
Cc1c2c(OCC3CCCCO3)nn(C)c(=O)c2c(C)n1-c1ccccc1 (configuration not stated); n

Note: attention shifts to another entry.
Enquiry: Kindly provide the recorded test outcome for the following compound: O=C(O)CCC(=O)Nc1ccc2ccccc2c1
Return: n

###

- Tested on: SR
- ASSAY PROCEDURE: NCI tumour cell line growth inhibition, 48 h
The source made the active and inactive calls. Cut-off read from the data, not from the text of the source: active = GI50 up to about 1.1 µM and inactive = higher.
Your reply should match one of these outcome classes. active, inactive

Answered examples (8):
CC(=O)/C(=C\NC(N)=S)C(=O)Nc1ccccc1C; inactive
c1ccc(-c2cc(-c3cc(-c4ccccc4)no3)on2)cc1; inactive
CCOP(=O)(OCC)Oc1c(OC)c2[nH]c(C(=O)OC)cc2c2c(C(=O)O)c[nH]c12; inactive
COC(=O)C1c2cc3c(cc2C(OC2OC(C)C(OC)C(C)(OC)C2OC)CC1(C)O)C(=O)c1c(O)cc2c(c1C3=O)OC1OC2(C)C(O)C([N+](C)(C)[O-])C1O (centres undefined); active
O=C1C(=Cc2cccc(Cl)c2)N=C(c2ccccc2)N1n1c(-c2ccccc2)nc2ccccc2c1=O; inactive
COc1cc(C(=O)Oc2c(C#N)sc3c2c(=O)n(-c2ccccc2)c(=S)n3-c2ccccc2)cc(OC)c1OC; inactive
COC1CC(OC2C(C)OC(OC3C(C)OC(OC4C(O)CC(O[C@H]5CC[C@@]6(C)C(=CC[C@]7(O)[C@@H]6C[C@@H](OC(C)=O)[C@@]6(C)[C@]7(O)CC[C@@]6(O)C(C)=O)C5)OC4C)CC3OC)CC2OC)OC(C)C1O (some centres undefined); inactive
CCOC(=O)C1(C(=O)OCC)C[C@H]2CON=C2[C@@H]1c1ccc(C(F)(F)F)cc1; inactive

Note: attention shifts to another entry.
Enquiry: Kindly provide the recorded test outcome for the following molecule: CCOc1ccc(OP2(=O)NC(=O)C=C(C)N2)cc1 (centres undefined)
Return: inactive

###

- System: ACHN
- ASSAY PROCEDURE: NCI tumour cell line growth inhibition, 48 h
The source made the active and inactive calls. Cut-off read from the data, not from the text of the source: active = GI50 up to about 1.1 µM and inactive = higher.
RESULT TYPE: GI50

CCN(CCCl)CCNc1c2ccccc2nc2ccc(OC)cc12; 0.127 µM (active)

Enquiry: Look up GI50 of O=C(C[n+]1ccccc1)NNC(=O)/C(=C/c1ccc2c(c1)OCO2)NC(=O)c1ccccc1 and report it.
Return: > 100 µM (inactive)

Enquiry: Look up GI50 of CCOC(OCC)[C@@H]1C[C@@H]2N(O[C@H](OC3CCCC3(c3ccccc3)c3ccccc3)[C@H](OC(C)=O)[C@@]2(CC)Cc2ccc(OC)c(OC)c2)O1 (stereo not given in full) and report it.
Return: > 100 µM (inactive)

Enquiry: Look up GI50 of CCOC(=O)CCC(NC(=O)c1ccc(NCc2ccc3nc(OC)c(OC)nc3c2)c2ccccc12)C(=O)OCC (stereo not given) and report it.
Return: 55.8 µM (inactive)

Enquiry: Look up GI50 of CC(CSC(=N)N)C(N)=O (stereo not given) and report it.
Return: > 100 µM (inactive)
